Values from PubChem BioAssay (NCI)

Protocol Summary: NCI Yeast Anticancer Drug Screen. Data for the bub3 strain (AID 167)
Condition Notes: S. cerevisiae bub3 mutant strain, at 50.0 µM
This is part of a sample that, as a whole, favours compounds with a hit. Of some 79,000 tested, about 15% had one in any assay. Calls of active or inactive are those of the source. Cut-off read from the data, not from the text of the source: active = growth inhibition above about 70%; inactive = the rest.
Labels: active, inactive

[[record]]
compound = "CCOC(=O)CN1CCC(C(=O)OCC)CC1"
assigned_category = "inactive"

[[record]]
compound = "COc1ccc2c(c1)SC1=NNC(=O)CN12"
assigned_category = "inactive"

[[record]]
compound = "CN(C)CCN1CCCN(C)CC1"
assigned_category = "inactive"

[[record]]
compound = "CC(C)(C)NC(=O)c1cccc(C(N)=O)n1"
assigned_category = "inactive"

[[record]]
compound = "Cc1cc(S(=O)(=O)NC(=NCC(=O)NN)NN)c(S)cc1Cl"
assigned_category = "inactive"

[[record]]
compound = "CC(C)C1(C(C)C)OCC(CO)O1 (centres undefined)"
assigned_category = "inactive"

[[record]]
compound = "COCCNC(C)=O"
assigned_category = "inactive"

[[record]]
compound = "ClC1=C(Cl)C2(Cl)CC1(Cl)C1CCCCC12 (centres undefined)"
assigned_category = "inactive"

[[record]]
compound = "CCCOC(C)OCCC#CCC(C)OC(=O)CC(Cl)(Cl)Cl (centres undefined)"
assigned_category = "inactive"

[[record]]
compound = "COc1cc2c(c3c1c(=O)c1ccccc1n3C)C=CC1(CCCCC1)O2"
assigned_category = "active"

[[record]]
compound = "Cn1c(-c2ccccc2)cc(=O)cc1-c1ccccc1"
assigned_category = "inactive"

[[record]]
compound = "CC(=O)NC(CCCCNC(=O)OCc1ccccc1)C(=O)O (centres undefined)"
assigned_category = "inactive"

[[record]]
compound = "COc1ccc2nccc(Cl)c2c1"
assigned_category = "inactive"

[[record]]
compound = "O=C(NC(=O)c1ccc(F)c(Cl)c1)NC1CC1"
assigned_category = "inactive"

[[record]]
compound = "Cc1c(O)cc(O)c(C)c1C"
assigned_category = "inactive"

[[record]]
compound = "Nc1cc(=O)n(-c2ccccc2)[nH]1"
assigned_category = "inactive"

[[record]]
compound = "CC(C)C(=O)OC1CCCCC1Cc1ccccn1 (centres undefined)"
assigned_category = "inactive"

[[record]]
compound = "[CH3][Sn]([CH3])([N](c1ccccn1)c1ccccn1)[N](c1ccccn1)c1ccccn1"
assigned_category = "inactive"

[[record]]
compound = "OC1CCCN(Cc2ccccc2)C1 (centres undefined)"
assigned_category = "inactive"

[[record]]
compound = "Nc1nc(=O)[nH]nc1SCc1ccccc1"
assigned_category = "inactive"

[[record]]
compound = "O=C(O)C#Cc1ccccc1[N+](=O)[O-]"
assigned_category = "inactive"

[[record]]
compound = "CCOC(=O)c1ccc(NCc2cccc([N+](=O)[O-])c2)cc1"
assigned_category = "active"

[[record]]
compound = "O=C1OC(c2ccccc2)N(C(=O)c2ccccc2)C1Cc1ccc(OCc2ccccc2)cc1 (centres undefined)"
assigned_category = "inactive"

[[record]]
compound = "Cc1cccc(NC(=O)CSc2nnc(Cc3ccccc3)o2)c1"
assigned_category = "inactive"

[[record]]
compound = "COC1=C(c2c[nH]c3ccc(CC=C(C)C)cc23)C(=O)C(OC)=C(c2c[nH]c3ccc(CC=C(C)C)cc23)C1=O"
assigned_category = "inactive"

[[record]]
compound = "COc1ccc(-c2cn3c([nH]c(=O)c4cc(Br)ccc43)c2C#N)cc1"
assigned_category = "inactive"

[[record]]
compound = "C=C(C)C(=O)NC(Cc1cnc[nH]1)C(=O)O (centres undefined)"
assigned_category = "inactive"

[[record]]
compound = "COc1ccc(C2=C/C(=C/c3cccc(OC)c3OC)C(=O)O2)cc1"
assigned_category = "inactive"

[[record]]
compound = "[N-]=[N+]=NCC1OCC(O)C(OCc2ccccc2)C1OCc1ccccc1 (centres undefined)"
assigned_category = "inactive"

[[record]]
compound = "[N-]=[N+]=Nc1ccccc1-c1ccccc1[N+](=O)[O-]"
assigned_category = "inactive"

[[record]]
compound = "c1ccc2c(c1)C1CCCCCC21N1CCOCC1 (centres undefined)"
assigned_category = "inactive"

[[record]]
compound = "COc1cc(NCCCCCCCNC(C)C)c2nccc(C)c2c1"
assigned_category = "inactive"

[[record]]
compound = "O=C(O)CCCc1ccc2c(c1)-c1ccccc1S2=O (centres undefined)"
assigned_category = "inactive"

[[record]]
compound = "COc1ccc2[nH]cc(CN3CCC(CO)(c4ccccc4)CC3)c2c1"
assigned_category = "inactive"

[[record]]
compound = "COC1(OC)C2(Cl)CC(C(=O)O)C1(Cl)C(Cl)=C2Cl (centres undefined)"
assigned_category = "inactive"

[[record]]
compound = "O=[N+]([O-])c1ccc(F)cc1"
assigned_category = "inactive"

[[record]]
compound = "COC(=O)c1nnn(CCc2c[nH]c3ccccc23)c1C(=O)OC"
assigned_category = "inactive"

[[record]]
compound = "COc1ccc2c(c1)C1(C)CCCC(C)C1=CC2=O (centres undefined)"
assigned_category = "active"

[[record]]
compound = "CCCCCCCCCCCNc1ncnc2[nH]ncc12"
assigned_category = "inactive"

[[record]]
compound = "CCCCCCCCOc1ccc(Cl)cc1"
assigned_category = "inactive"

[[record]]
compound = "O=C(O)NC(c1ccccc1)C(NC(=O)c1ccccc1)c1ccccc1 (centres undefined)"
assigned_category = "inactive"

[[record]]
compound = "O=C(O)/C(=C\\c1ccncc1)c1cccc2ccccc12"
assigned_category = "inactive"

[[record]]
compound = "CC(=O)Oc1cc(C)c(OC(C)=O)c(C)c1C"
assigned_category = "inactive"

[[record]]
compound = "C[N+]1(C)CCC(C(=O)c2ccccc2)CC1"
assigned_category = "inactive"

[[record]]
compound = "O=C1CSC(c2cccc(O)c2O)N1c1nncs1 (centres undefined)"
assigned_category = "inactive"

[[record]]
compound = "CN(C)CCCNC(=O)CCNC(=O)c1cc(NC(=O)c2cc(NC(=O)c3cc(NC(=O)c4nc(NC(=O)CCCNC(=O)c5cc(NC(=O)c6cc(NC(=O)c7cc(NC(=O)c8nccn8C)cn7C)cn6C)cn5C)cn4C)cn3C)cn2C)cn1C"
assigned_category = "inactive"

[[record]]
compound = "CC12CCC(=O)C=C1CCC1C2C(=O)CC2(C)C1CCC2(O)C(=O)Cn1cc(F)c(=O)[nH]c1=O (centres undefined)"
assigned_category = "inactive"

[[record]]
compound = "CN(C)c1ccc(Cc2ccc(N(C)C)c3cccnc23)c2ncccc12"
assigned_category = "inactive"

[[record]]
compound = "Nc1ccc(-c2nc3ccc(N)cc3[nH]2)cc1"
assigned_category = "inactive"


----------
Measured growth inhibition by item
Protocol Summary: NCI Yeast Anticancer Drug Screen. Data for the mlh1 rad18 strain (AID 175)
Condition Notes: S. cerevisiae mlh1 rad18 strain growth inhibition; at 50.0 µM; stronger effect = higher value
This is part of a sample that, as a whole, favours compounds with a hit. Of some 79,000 tested, about 15% had one in any assay.
Experimental Endpoint: growth inhibition (%)

[[record]]
compound = "CC(C)CCCC(C)C1CCC2C3CCC4CC(=O)/C(=C\\O)CC4(C)C3CCC12C (configuration not stated)"
observed_value = 67.2

[[record]]
compound = "CCOC(=O)c1nnn(Cc2ccccc2)c1N"
observed_value = -9.35

[[record]]
compound = "CC(=O)C[n+]1ccccc1Sc1ccc(Cl)cc1"
observed_value = 56.7

[[record]]
compound = "C[N+](C)(CCNCC(N)=O)CC(N)=O"
observed_value = -1.5

[[record]]
compound = "CCCCCCCCCC(=O)N/N=C/c1ccccc1O"
observed_value = 13.8

[[record]]
compound = "Nc1ccc(S(=O)(=O)N/N=C/c2ccco2)cc1"
observed_value = -15.1

[[record]]
compound = "COC(CN(C)C(=S)Nc1cccc2ccccc12)OC"
observed_value = -30.9

[[record]]
compound = "CCc1ccc(OC(=O)CCl)cc1"
observed_value = -42.5

[[record]]
compound = "Cc1ccc(C(=O)c2ccc(C)cc2)cc1"
observed_value = 15.1

[[record]]
compound = "O=[N+]([O-])c1cc(/C=N/NS(=O)(=O)c2ccc(F)cc2)c(O)c([N+](=O)[O-])c1"
observed_value = 9

[[record]]
compound = "O=C1C2=C(Nc3cc(Cl)ccc3N2)OC1c1c[nH]c2ccc(COc3ccccc3)cc12 (configuration not stated)"
observed_value = -4.1

[[record]]
compound = "O=C(Nc1ccc(Cl)cc1)OCc1ccco1"
observed_value = 16.8

